Target: T1, full length human DLL4 (human, UniProt Q9NR61 27-685)
T1 construct: whole, on cells; also called native DLL4 expressed in HEK293 cells
T1 sequence (Q9NR61 27-685): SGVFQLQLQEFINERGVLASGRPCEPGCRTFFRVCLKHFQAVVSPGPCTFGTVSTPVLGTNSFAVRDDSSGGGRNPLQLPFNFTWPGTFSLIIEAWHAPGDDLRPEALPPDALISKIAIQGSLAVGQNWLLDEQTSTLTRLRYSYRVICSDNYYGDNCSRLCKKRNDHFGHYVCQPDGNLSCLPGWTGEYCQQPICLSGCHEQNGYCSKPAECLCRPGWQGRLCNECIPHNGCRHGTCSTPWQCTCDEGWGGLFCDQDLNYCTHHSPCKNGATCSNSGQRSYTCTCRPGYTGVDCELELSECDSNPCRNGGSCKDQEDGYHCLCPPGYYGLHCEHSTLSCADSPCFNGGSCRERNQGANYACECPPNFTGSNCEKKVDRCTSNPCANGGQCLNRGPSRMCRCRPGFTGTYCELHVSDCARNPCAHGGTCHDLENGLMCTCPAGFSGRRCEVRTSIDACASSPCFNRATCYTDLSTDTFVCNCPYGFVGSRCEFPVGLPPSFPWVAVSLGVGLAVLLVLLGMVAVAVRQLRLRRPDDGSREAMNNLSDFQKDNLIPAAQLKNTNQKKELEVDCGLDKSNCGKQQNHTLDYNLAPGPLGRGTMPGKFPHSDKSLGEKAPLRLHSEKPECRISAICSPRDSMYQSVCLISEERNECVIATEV
Test: FMAT competition, purified antibody vs Alexa-647 human Notch1/Fc, 293T cells with human DLL4
result_type: % inhibition at 0.62 nM (%)
Answers are plain numbers, in %.

Here's what some known entries look like.
binder: 4B3 (antibody, IgG4, V domains shown, Fully human; also used where no isotype is printed) VH: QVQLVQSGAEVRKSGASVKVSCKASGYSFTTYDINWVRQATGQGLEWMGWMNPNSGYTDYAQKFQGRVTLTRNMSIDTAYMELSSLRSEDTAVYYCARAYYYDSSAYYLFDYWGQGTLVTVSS VL: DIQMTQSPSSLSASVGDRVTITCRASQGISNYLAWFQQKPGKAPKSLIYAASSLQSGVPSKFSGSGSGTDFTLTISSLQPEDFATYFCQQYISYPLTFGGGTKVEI
unit_of_measurement: %
endpoint_value: 20

binder: 21H3 (antibody, IgG4, V domains shown, Fully human; used for IgG4 rows and where no isotype is printed; also called 21H3 IgG4) VH: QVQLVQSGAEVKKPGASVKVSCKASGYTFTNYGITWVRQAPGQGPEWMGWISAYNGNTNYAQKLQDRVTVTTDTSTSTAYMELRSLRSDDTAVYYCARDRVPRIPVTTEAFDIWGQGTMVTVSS VL: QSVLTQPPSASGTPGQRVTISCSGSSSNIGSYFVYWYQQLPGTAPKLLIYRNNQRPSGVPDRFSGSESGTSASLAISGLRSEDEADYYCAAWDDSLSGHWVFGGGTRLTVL
unit_of_measurement: %
endpoint_value: 9

Look up and report measured % inhibition at 0.62 nM for this entry: 12A1 (antibody, IgG4, V domains shown, Fully human; also used where no isotype is printed) VH: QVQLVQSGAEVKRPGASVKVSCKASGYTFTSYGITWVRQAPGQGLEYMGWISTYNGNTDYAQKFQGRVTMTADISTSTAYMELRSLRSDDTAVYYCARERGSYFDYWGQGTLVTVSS VL: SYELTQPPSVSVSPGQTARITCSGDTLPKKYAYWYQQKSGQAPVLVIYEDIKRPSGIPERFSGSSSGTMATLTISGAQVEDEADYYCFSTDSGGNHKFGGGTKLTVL 15
